Data provenance: the SangsterLogP compilation

MEASUREMENT_PARAMETERS: pH 2.0
Recorded logD determines the label; the label ranges are low (below 3), moderate (3 to below 4), high (4 or more)

                            structure_smiles  category_label
 0  COc1ccc(N(CC(=O)N[C@@H]2CCS(=O)(=O)C2)S(=O)(=O)c2ccc(Cl)c(Cl)c2)cc1        moderate
 1  Cc1ccccc1O[C@@H]1C(=O)N(Cc2ccc3c(c2)OCO3)[C@H]1c1ccc2c(c1)OCO2            high
 2  O=C1[C@@H]2[C@@H]3[C@H]4C[C@H]5[C@@H]3[C@@H]2C2(OCCO2)[C@H]5[C@@H]14             low
 3  COc1ccc([C@@H](C(=O)Nc2ccc3c(c2)OCCO3)N(C)C(=O)Cc2c[nH]c3ccccc23)cc1        moderate
 4  COc1ccc(NC(=O)[C@H](OC(=O)CNC(=O)c2ccc(C)s2)c2ccccc2)cc1Cl            high
 5  O=C(COC(=O)/C=C/c1ccc(F)cc1)Nc1cc(C(F)(F)F)ccc1N1CCOCC1            high
 6  O=C(/C=C/c1ccco1)Nc1ccccc1NC(=O)/C=C/c1ccco1        moderate
 7   O=C1[C@@H](CSCc2ccccc2)NC(=S)N1C1CCCCC1            high
 8  CCOC(=O)/C=c1/s/c(=C/c2c(F)cccc2F)c(=O)n1CC(=O)N(C)C        moderate
 9  COCON1C(=O)CN(C(C)=O)[C@H]1c1ccc(Cl)cc1Cl             low
10  Cc1cc(C)n2nc(S[C@@H](C)C(=O)NCC(=O)Nc3ccc(F)c(F)c3F)nc2n1             low
11  C[C@H](NC1=NS(=O)(=O)c2ccccc21)C(=O)OCC(=O)/C=C1/N(C)c2ccccc2C1(C)C            high
12  CN(C)S(=O)(=O)c1cccc(Cn2c(=O)c(=O)n(Cc3ccccc3)c3ccc(Cl)cc32)c1        moderate
13  CC(=O)N1Cc2ccccc2C[C@H]1C(=O)OCc1ccc(C#N)cc1             low
14  CC[C@@H](OC(=O)CNC(=O)c1ccc(N2C(=O)c3ccccc3C2=O)cc1)C(=O)c1ccccc1            high
15  CCN(CC)S(=O)(=O)c1ccc(C(=O)N2CCNC(=O)[C@H]2CC(=O)OC)cc1             low
16             O=C(/C=C/c1cccs1)Nc1ccc(I)cc1            high
17  COC(=O)C(=O)C1=C(c2ccc(Cl)cc2)NC(=O)N[C@@H]1c1ccc(Cl)cc1        moderate

###

MEASUREMENT_PARAMETERS: pH 5.0
REPORTED_PROPERTY: logD

>>> print(df.to_string())
                                    compound  reported_property  data_value
 0  CCCC1=C(C(=O)OCC)[C@H](c2ccc3c(c2)OCO3)NC(=O)N1               logD        3.59
 1  O=C1C[C@@H](c2c(F)cccc2Cl)c2cc3c(cc2N1)OCCO3               logD        3.96
 2  Cc1cc(C)c([C@H]2[C@@H]3CCCC=C3C(C#N)=C(N)C2(C#N)C#N)c(C)c1               logD        5.48
 3  N#CC1=C(N)C(C#N)(C#N)[C@@H](c2ccccc2Cl)[C@@H]2CSCC=C12               logD         4.5
 4  CC(=O)Oc1ccc(C(=O)Nc2cccc(C(=O)c3cccc(NC(=O)c4ccc(OC(C)=O)cc4)c3)c2)cc1               logD        5.34
 5  O=C(c1cccc(COCC(F)(F)C(F)F)c1)N1CC[C@@H](C(F)(F)F)n2nccc21               logD        4.27
 6  CCN(CC)S(=O)(=O)c1ccc(/C=C/C(=O)NC2CCCCC2)cc1               logD        4.34
 7  CCOC(=O)C1=C(C)NC(=S)N[C@@H]1c1ccc(OCc2ccc(Cl)cc2)c(OCC)c1               logD        5.31
 8  C[C@@H]1CCCCN1C(=O)CCCCC(=O)N1CCCC[C@H]1C               logD        3.42
 9  O=C(CN1C(=O)c2ccccc2S1(=O)=O)Nc1ccc(S(=O)(=O)N2CCCCCC2)cc1               logD        4.73
10  CC1=NN(C(=O)c2ccccc2Cl)[C@](O)(c2ccc(Cl)cc2)C1               logD        3.73
11  O=C(/C=C/Nc1cccc(C(F)(F)F)c1)c1ccc(Br)cc1               logD        5.65
12  COc1ccc([C@@H]2[C@H](C(=O)N3CCCCCC3)c3ccccc3C(=O)N2Cc2ccc(F)cc2)cc1               logD        5.01
13  C[C@@H]1CCC2[C@]3(C)COC(C)(C)O[C@H]3CC[C@]2(C)[C@@]12CCC1(COC(=O)C1)O2 (some centres undefined)               logD        4.24
14  CCCC[C@H](CC)Cn1c(SCC(=O)Nc2ccc(OC)cc2)nc2c1c(=O)n(C)c(=O)n2C               logD        5.51
15                     CCOC(=O)c1ccc(C#N)cc1               logD        1.87
16  C[C@@H](NC(=O)C1CCN(C(=O)c2ccc(F)cc2)CC1)c1ccccc1               logD        3.48
17    CC(C)(C)C(=O)Nc1ccc(NC(=O)C(C)(C)C)cc1               logD        2.79
18  C[C@]12CC[C@@H]3C[C@@]1(C(=O)NCC(F)(F)F)OC[C@@]32C               logD        3.11
19  COc1ccc([C@H]2[C@H](C(=O)Nc3ccc(F)cc3F)c3cc(OC)c(OC)cc3C(=O)N2C)cc1OC               logD        3.66
20  CS(=O)(=O)N(CC(=O)Nc1ccccc1C(=O)NCc1ccco1)c1ccc(Cl)cc1               logD        4.32
21  CCOC(=O)c1[nH]c(C)c(C(=O)OCC(=O)N(C)[C@@H]2CCS(=O)(=O)C2)c1C               logD        3.35
22  O=C1[C@@H](c2cccc(Br)c2)N(CCC2=CCCCC2)C(=O)CN1C1CCCCC1               logD         5.6
23  CC(=O)c1ccc(NC(=O)CNC(=O)CNC(=O)[C@@H]2O[C@@H]3OC(C)(C)O[C@@H]3[C@H]3OC(C)(C)O[C@H]32)cc1               logD        3.39
24  CC(=O)Nc1ccc(C(=O)N(Cc2ccco2)C2(C(=O)Nc3c(C)cccc3C)CCCCC2)cc1               logD        4.62
25  COc1ccc(N(C(=O)C2CCCCC2)S(=O)(=O)c2ccc3c4c(cccc24)C(=O)N3C)cc1               logD        5.26
26  CCOCCOC(=O)c1ccc(NC(=O)COc2ccc(C)cc2Br)cc1               logD        5.36
27  O=C1/C(=C/c2c(Sc3ccccc3)nc3ccccn3c2=O)SC(=S)N1C[C@H]1CCCO1               logD        5.87
28  CSc1ccc(S(=O)(=O)N(CC(=O)NC[C@@H]2CCCO2)c2ccc(C)cc2)cc1               logD         4.3
29  COC(=O)[C@H](CCSC)NC(=O)c1cc2c(n(-c3ccccc3)c1=O)CC(C)(C)CC2=O               logD        3.97
30            CC1(C)C[C@](C)(O)[P@](C)(=O)O1               logD        0.71
31  O=C1Nc2cc(C(=O)NC3CC3)ccc2S/C1=C\c1ccccc1               logD        4.32
32  O=C(N[C@H](Sc1ncccn1)C(=O)c1ccccc1)c1ccccc1               logD        3.62
33  Cc1ccc([N+](=O)[O-])cc1N1C(=O)[C@@H]2[C@@H](C1=O)[C@@H](C(=O)C(C)(C)C)N1N=CC=C[C@H]21               logD        3.85
34   C[C@@H](OC(=O)c1cccc(C(F)(F)F)c1)C(N)=O               logD        2.75
35  Cc1ccccc1N[C@@H](c1ccccc1F)P(=O)(OC(C)C)OC(C)C               logD        5.63
36  Cc1ccc(C)c(NC(=O)[C@H]2CC3c4ccccc4C2c2ccccc23)c1               logD        5.26
37  Cc1ccc(CNC(=O)C2CCN(S(=O)(=O)c3ccc4c(c3)OCCCO4)CC2)cc1               logD        4.01
38  CCOC(=O)N1CCN(C(=O)c2noc3c2C[C@@H](C(C)(C)C)CC3)CC1               logD        4.52
